tested on: human maximum recommended daily dose, FDA database; test: DSSTox (FDAMDD) FDA Maximum (Recommended) Daily Dose Database; conditions: TherapeuticCategory: expectorant; stronger effect = lower value
maximum recommended daily dose (mmol/kg-bw/day) values by entry
recorded metric: maximum recommended daily dose (mmol/kg-bw/day)

# molecule, assay system, numeric result
rows = [
    ("CC(I)C1OCC(CO)O1 (stereo not given)", "human maximum recommended daily dose, FDA database", 0.0155),
    ("COc1ccccc1OCC(O)CO (stereo not given)", "human maximum recommended daily dose, FDA database", 0.101),
    ("COc1ccccc1O", "human maximum recommended daily dose, FDA database", 0.0902),
    ("OCC1COC(CCI)O1 (stereo not given)", "human maximum recommended daily dose, FDA database", 0.0155),
    ("Nc1c(Br)cc(Br)cc1CNC1CCC(O)CC1 (stereo not given)", "human maximum recommended daily dose, FDA database", 0.00529),
]

----------
test system: human maximum recommended daily dose, FDA database; assay: DSSTox (FDAMDD) FDA Maximum (Recommended) Daily Dose Database; settings: TherapeuticCategory: antidiabetic; stronger effect = lower value
In plain terms, low maximum recommended daily dose (mmol/kg-bw/day), meaning strictly below 0.02, gives Criterion met, and everything else gives Criterion not met.

# molecule, class name
rows = [
    ("CN(CCOc1ccc(CC2SC(=O)NC2=O)cc1)c1ccccn1 (stereo unspecified)", "Criterion met"),
    ("Cc1cc(C(=O)NCCc2ccc(S(=O)(=O)NC(=O)NN3CCCCCC3)cc2)no1", "Criterion met"),
    ("CC(=O)c1ccc(S(=O)(=O)NC(=O)NC2CCCCC2)cc1", "Criterion not met"),
    ("NC(N)=NC(N)=NCCc1ccccc1", "Criterion met"),
    ("Cc1ccc(S(=O)(=O)NC(=O)NN2CC3CCCC3C2)cc1 (stereo unspecified)", "Criterion met"),
    ("COCCOc1cnc(NS(=O)(=O)c2ccccc2)nc1", "Criterion not met"),
    ("CN(C)C(=N)N=C(N)N", "Criterion not met"),
    ("Cc1ccc(S(=O)(=O)NC(=O)NC2CCCCC2)cc1N", "Criterion met"),
    ("CCOc1cc(CC(=O)N[C@@H](CC(C)C)c2ccccc2N2CCCCC2)ccc1C(=O)O", "Criterion met"),
    ("CC(C)(C)c1nnc(NS(=O)(=O)c2ccccc2)s1", "Criterion not met"),
    ("COc1ccc2c(c1)C(=O)N(CCc1ccc(S(=O)(=O)NC(=O)NC3CCCCC3)cc1)C(=O)C2(C)C", "Criterion met"),
    ("Cc1c(C)c2c(c(C)c1O)CCC(C)(COc1ccc(CC3SC(=O)NC3=O)cc1)O2 (stereo unspecified)", "Criterion not met"),
    ("CCCNC(=O)NS(=O)(=O)c1ccc(Cl)cc1", "Criterion not met"),
    ("CCCCNC(=O)NS(=O)(=O)c1ccc(N)cc1", "Criterion not met"),
    ("OCCN1C[C@H](O)[C@@H](O)[C@H](O)[C@H]1CO", "Criterion not met"),
    ("Cc1ccc(S(=O)(=O)NC(=O)NN2CCCCCC2)cc1", "Criterion not met"),
]

----------
tested on: human maximum recommended daily dose, FDA database; test: DSSTox (FDAMDD) FDA Maximum (Recommended) Daily Dose Database; details: TherapeuticCategory: alcohol deterrent; stronger effect = lower value
recorded metric: maximum recommended daily dose (mmol/kg-bw/day)

# smiles, numeric result
data = [
    ("CCN(CC)C(=S)SSC(=S)N(CC)CC", 0.0281),
]

----------
test system: human maximum recommended daily dose, FDA database; assay: DSSTox (FDAMDD) FDA Maximum (Recommended) Daily Dose Database; details: TherapeuticCategory: antihistaminic; stronger effect = lower value
recorded metric: maximum recommended daily dose (mmol/kg-bw/day)

# compound, assay system, result
measured = [
    ("CN(C)CCN(Cc1cccs1)c1ccccn1", "human maximum recommended daily dose, FDA database", 0.0255),
    ("c1ccc(CN(CC2=NCCN2)c2ccccc2)cc1", "human maximum recommended daily dose, FDA database", 0.0188),
    ("CN(C)CCC(c1ccc(Br)cc1)c1ccccn1 (configuration not stated)", "human maximum recommended daily dose, FDA database", 0.00125),
    ("CN1CCC[C@@H]1CCO[C@](C)(c1ccccc1)c1ccc(Cl)cc1", "human maximum recommended daily dose, FDA database", 0.00039),
    ("CC(CN1c2ccccc2Sc2ccccc21)N(C)C (configuration not stated)", "human maximum recommended daily dose, FDA database", 0.00587),
    ("CN1CCC(=C2c3ccccc3CCc3cccnc32)CC1", "human maximum recommended daily dose, FDA database", 0.000115),
    ("CN1CCC2=C(C1)C(c1ccccc1)c1ccccc12 (configuration not stated)", "human maximum recommended daily dose, FDA database", 0.00957),
]

----------
system: human maximum recommended daily dose, FDA database; test: DSSTox (FDAMDD) FDA Maximum (Recommended) Daily Dose Database; details: TherapeuticCategory: stool softener; stronger effect = lower value
recorded metric: maximum recommended daily dose (mmol/kg-bw/day)

# compound, numeric result
data = [
    ("CCCCC(CC)COC(=O)CC(C(=O)OCC(CC)CCCC)S(=O)(=O)O (stereo unspecified)", 0.0109),
]

----------
Listed below: maximum recommended daily dose (mmol/kg-bw/day) values for each entry.
system: human maximum recommended daily dose, FDA database; assay: DSSTox (FDAMDD) FDA Maximum (Recommended) Daily Dose Database; settings: TherapeuticCategory: cathartic; stronger effect = lower value
recorded metric: maximum recommended daily dose (mmol/kg-bw/day)

# smiles, numeric result
measured = [
    ("CC(=O)Oc1ccc(C(c2ccc(OC(C)=O)cc2)c2ccccn2)cc1", 0.000692),
    ("O=C(O)c1cc(O)c2c(c1)[C@H]([C@H]1c3cc(C(=O)O)cc(O)c3C(=O)c3c(O[C@@H]4O[C@H](CO)[C@@H](O)[C@H](O)[C@H]4O)cccc31)c1cccc(O[C@@H]3O[C@H](CO)[C@@H](O)[C@H](O)[C@H]3O)c1C2=O", 0.0194),
    ("O=C1OC(c2ccc(O)cc2)(c2ccc(O)cc2)c2ccccc21", 0.00682),
    ("OC[C@@H](O)[C@@H](O)[C@H](O)[C@@H](O)CO", 4.57),
    ("CC(=O)Oc1ccc(C2(c3ccc(OC(C)=O)cc3)C(=O)Nc3ccccc32)cc1", 0.00208),
]

----------
Reported maximum recommended daily dose (mmol/kg-bw/day) values for a set of compounds
system: human maximum recommended daily dose, FDA database; experiment: DSSTox (FDAMDD) FDA Maximum (Recommended) Daily Dose Database; conditions: TherapeuticCategory: progestogen; antineoplastic; stronger effect = lower value
recorded metric: maximum recommended daily dose (mmol/kg-bw/day)

# smiles, numeric result
records = [
    ("CC(=O)[C@@]1(O)CC[C@H]2[C@@H]3C=C(Cl)C4=CC(=O)CC[C@]4(C)[C@H]3CC[C@@]21C", "9.18e-05"),
    ("CC(=O)O[C@]1(C(C)=O)CC[C@H]2[C@@H]3C=C(Cl)C4=CC(=O)CC[C@]4(C)[C@H]3CC[C@@]21C", "8.22e-05"),
]

----------
tested on: human maximum recommended daily dose, FDA database; test: DSSTox (FDAMDD) FDA Maximum (Recommended) Daily Dose Database; conditions: TherapeuticCategory: antimethemoglobinemic; stronger effect = lower value
recorded metric: maximum recommended daily dose (mmol/kg-bw/day)

# smiles, numeric result
records = [
    ("CN(C)c1ccc2nc3ccc(=[N+](C)C)cc-3sc2c1", 0.0203),
]

----------
Parameter maximum recommended daily dose (mmol/kg-bw/day): see the listing below.
tested on: human maximum recommended daily dose, FDA database; assay: DSSTox (FDAMDD) FDA Maximum (Recommended) Daily Dose Database; conditions: TherapeuticCategory: estrogen; stronger effect = lower value
recorded metric: maximum recommended daily dose (mmol/kg-bw/day)

# compound, assay system, numeric result
measured = [
    ("C#C[C@]1(O)CC[C@H]2[C@@H]3CCc4cc(O)ccc4[C@H]3CC[C@@]21C", "human maximum recommended daily dose, FDA database", "1.69e-06"),
    ("CCC(c1ccc2cc(OC)ccc2c1)C(C)(C)C(=O)O (stereo not drawn)", "human maximum recommended daily dose, FDA database", 0.000524),
    ("CCCCC(=O)O[C@H]1CC[C@H]2[C@@H]3CCc4cc(O)ccc4[C@H]3CC[C@]12C", "human maximum recommended daily dose, FDA database", 0.0014),
    ("CCC(=O)Oc1ccc2c(c1)CC[C@@H]1[C@@H]2CC[C@]2(C)[C@@H](OC(=O)CC)CC[C@@H]12", "human maximum recommended daily dose, FDA database", 0.0013),
    ("C[C@]12CC[C@@H]3c4ccc(OS(=O)(=O)O)cc4CC[C@H]3[C@@H]1CCC2=O", "human maximum recommended daily dose, FDA database", 0.000107),
    ("CCCCCCCCCCC(=O)O[C@H]1CC[C@H]2[C@@H]3CCc4cc(O)ccc4[C@H]3CC[C@]12C", "human maximum recommended daily dose, FDA database", 0.00113),
    ("C[C@]12CC[C@@H]3c4ccc(O)cc4CC[C@H]3[C@@H]1CC[C@@H]2OC(=O)CCC1CCCC1", "human maximum recommended daily dose, FDA database", 0.00126),
    ("C[C@]12CC[C@@H]3c4ccc(OC(=O)c5ccccc5)cc4CC[C@H]3[C@@H]1CC[C@@H]2O", "human maximum recommended daily dose, FDA database", 0.00133),
    ("C[C@]12CC[C@@H]3c4ccc(OC(=O)Cc5ccc(N(CCCl)CCCl)cc5)cc4CC[C@H]3[C@@H]1CC[C@@H]2OC(=O)Cc1ccc(N(CCCl)CCCl)cc1", "human maximum recommended daily dose, FDA database", 0.0211),
    ("CC/C(=C(/CC)c1ccc(O)cc1)c1ccc(O)cc1", "human maximum recommended daily dose, FDA database", 0.0373),
    ("CCCCCCC(=O)O[C@H]1CC[C@H]2[C@@H]3CCc4cc(O)ccc4[C@H]3CC[C@]12C", "human maximum recommended daily dose, FDA database", 0.0013),
    ("C[C@]12CC[C@@H]3c4ccc(O)cc4CC[C@H]3[C@@H]1CC[C@@H]2O", "human maximum recommended daily dose, FDA database", 0.00184),
    ("C#C[C@]1(O)CC[C@H]2[C@@H]3CCc4cc(OC)ccc4[C@H]3CC[C@@]21C", "human maximum recommended daily dose, FDA database", "2.67e-06"),
]
